Where do the numbers come from? From paper PMC10716780.

Biological target: human P450 11A1 (Homo sapiens)
Sequence (P05108 41-521 limits assumed): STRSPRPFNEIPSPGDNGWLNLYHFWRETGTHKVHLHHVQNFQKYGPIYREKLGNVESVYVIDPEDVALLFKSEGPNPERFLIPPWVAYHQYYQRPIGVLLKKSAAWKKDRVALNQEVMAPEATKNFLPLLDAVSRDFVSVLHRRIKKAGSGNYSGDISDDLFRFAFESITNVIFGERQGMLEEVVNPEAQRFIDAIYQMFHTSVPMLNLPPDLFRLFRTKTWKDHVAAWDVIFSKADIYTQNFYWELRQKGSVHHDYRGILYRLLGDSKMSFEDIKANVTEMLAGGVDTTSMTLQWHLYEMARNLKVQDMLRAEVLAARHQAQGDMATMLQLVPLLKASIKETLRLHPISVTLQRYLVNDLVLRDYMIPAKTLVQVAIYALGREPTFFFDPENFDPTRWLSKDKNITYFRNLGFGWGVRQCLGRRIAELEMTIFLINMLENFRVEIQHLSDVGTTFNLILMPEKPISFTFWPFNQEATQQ
Sequence (P00257 59-186 partner): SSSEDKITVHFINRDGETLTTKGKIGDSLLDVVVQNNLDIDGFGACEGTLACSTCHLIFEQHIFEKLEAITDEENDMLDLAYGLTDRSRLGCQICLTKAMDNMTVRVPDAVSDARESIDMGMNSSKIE
Experiment: Single-turnover kinetics of P450 11A1 with [1,2-3H]-cholesterol (radio-HPLC)
Assay type: biochemical
Design: M A S T R S P R P F N E I P S P G D N; Met-Ala (N-terminal start residues in place of the transit peptide and Ile40) (N); made in house; host or cells: E. coli (P450 11A1 in C41(DE3); Adx and AdR in E. coli)
Conditions: second table, headed 10-fold excess (high) Adx, time 25 s
RECORDED_ENDPOINT: concentration in single-turnover reaction (µM)
Give the value in µM but do not write µM after it.

// known answers, use as guide
MOLECULE	RESULT_UNIT	ASSAY_RESULT
CC(C)CC[C@@H](O)[C@@H](C)[C@H]1CC[C@H]2[C@@H]3CC=C4C[C@@H](O)CC[C@]4(C)[C@H]3CC[C@]12C [22R-OH Chol, 22R-hydroxycholesterol]	µM	0.1763
CC(C)CCC[C@@H](C)[C@H]1CC[C@H]2[C@@H]3CC=C4C[C@@H](O)CC[C@]4(C)[C@H]3CC[C@]12C [Cholesterol]	µM	1.649
CC(=O)[C@H]1CC[C@H]2[C@@H]3CC=C4C[C@@H](O)CC[C@]4(C)[C@H]3CC[C@]12C [Pregnenolone]	µM	2.512

Provide only the value of recorded concentration in single-turnover reaction for CC(C)CC[C@@H](O)[C@](C)(O)[C@H]1CC[C@H]2[C@@H]3CC=C4C[C@@H](O)CC[C@]4(C)[C@H]3CC[C@]12C [20R,22R-(OH)2 Chol, (20R,22R)-Cholest-5-ene-3β,20,22-triol] 0.1619

---

Biological target: UniProt:P05108
Assay: Single-turnover kinetics of P450 11A1 with [1,2-3H]-cholesterol (radio-HPLC)
Type: biochemical
Parameters: M A S T R S P R P F N E I P S P G D N; Met-Ala (N-terminal start residues in place of the transit peptide and Ile40) (N); made in house; host or cells: E. coli (P450 11A1 in C41(DE3); Adx and AdR in E. coli)
Conditions: 10-fold excess (high) Adx, time 0.75 s
Procedure: In this reaction, a 5 μM complex of P450 11A1 and 4.5 μM cholesterol was assembled, and Adx was added at either equimolar (low, 5 μM) or 10-fold excess (high, 50 μM) concentrations (along with 10 μM AdR). The complex was diluted 2-fold (with 5 mM NADPH) in the apparatus to initiate the reaction, which was quenched at variable times. The products of the reaction were extracted and quantified by radio-HPLC. […] (The analysis of kinetic modeling is described below.) […]
The following compounds are listed with their measured concentration in single-turnover reaction values.
Give the value, in units of µM, as a plain number.

COMPOUND	ASSAY_RESULT
CC(C)CCC[C@@H](C)[C@H]1CC[C@H]2[C@@H]3CC=C4C[C@@H](O)CC[C@]4(C)[C@H]3CC[C@]12C [Cholesterol]	3.865
CC(C)CC[C@@H](O)[C@@H](C)[C@H]1CC[C@H]2[C@@H]3CC=C4C[C@@H](O)CC[C@]4(C)[C@H]3CC[C@]12C [22R-OH Chol, 22R-hydroxycholesterol]	0.2577
CC(=O)[C@H]1CC[C@H]2[C@@H]3CC=C4C[C@@H](O)CC[C@]4(C)[C@H]3CC[C@]12C [Pregnenolone]	0.1368

// below: concentration in single-turnover reaction requested for another compound
Answer with the recorded concentration in single-turnover reaction for the compound listed here: CC(C)CC[C@@H](O)[C@](C)(O)[C@H]1CC[C@H]2[C@@H]3CC=C4C[C@@H](O)CC[C@]4(C)[C@H]3CC[C@]12C [20R,22R-(OH)2 Chol, (20R,22R)-Cholest-5-ene-3β,20,22-triol] 0.2407
